Biological target: Retinoic acid receptor RXR-alpha (Homo sapiens) (UniProt P19793)
Sequence (P19793 whole entry, looked up): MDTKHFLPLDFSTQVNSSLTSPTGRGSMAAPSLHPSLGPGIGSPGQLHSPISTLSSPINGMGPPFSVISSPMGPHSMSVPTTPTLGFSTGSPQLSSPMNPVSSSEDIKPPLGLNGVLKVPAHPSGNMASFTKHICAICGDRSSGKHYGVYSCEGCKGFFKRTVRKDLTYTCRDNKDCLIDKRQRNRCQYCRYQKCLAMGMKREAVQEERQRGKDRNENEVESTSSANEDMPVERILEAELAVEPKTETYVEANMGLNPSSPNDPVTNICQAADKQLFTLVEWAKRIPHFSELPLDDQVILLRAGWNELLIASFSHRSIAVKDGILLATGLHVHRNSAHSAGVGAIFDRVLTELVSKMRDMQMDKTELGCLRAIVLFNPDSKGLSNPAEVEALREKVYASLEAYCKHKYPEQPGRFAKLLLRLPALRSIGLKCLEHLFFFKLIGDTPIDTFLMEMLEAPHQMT
Assay: qHTS assay to identify small molecule agonists of the RXR signaling pathway (AID 1159527); further: nearly all actives have a fitted effect of over 35% in size
Conditions: HEK293T RXRa-UAS-bla, beta-lactamase ratio, 16 h; series mostly up to 76.8 µM
Records with an inconclusive call do not appear. Calls of active or inactive are those of the source. The call rests on the fitted dose curve.
Possible outcomes: yes (active), no (inactive)

>  <compound>
O=C(O)c1cc(O)c(O)c(O)c1

>  <classification>
no

$$$$
>  <compound>
O=C(O)c1cc(C(=O)O)cc(S(=O)(=O)O)c1

>  <classification>
no

$$$$
>  <compound>
CC1CCC2CC1C2(C)C (stereo not drawn)

>  <classification>
no

$$$$
>  <compound>
C=C(C)C(=O)OCCOCCOCCOC(=O)C(=C)C

>  <classification>
no

$$$$
>  <compound>
FC(F)(F)c1ccc(Cl)c(Cl)c1

>  <classification>
no

$$$$
>  <compound>
CCCCCC1=CCCC1=O

>  <classification>
no

$$$$
>  <compound>
Oc1cccc2ccccc12

>  <classification>
no

$$$$
>  <compound>
C#CCN(C)Cc1ccccc1

>  <classification>
no

$$$$
>  <compound>
CC(C)CC(=O)CC(C)C

>  <classification>
no

$$$$
>  <compound>
CC(=O)c1ccccc1

>  <classification>
no

$$$$
>  <compound>
O=S(=O)(O)c1ccc2ccccc2c1

>  <classification>
yes

$$$$
>  <compound>
O=C(Oc1ccccc1)c1ccccc1

>  <classification>
no

$$$$
>  <compound>
O=[N+]([O-])c1ccc(/C=C/c2ccc([N+](=O)[O-])cc2S(=O)(=O)O)c(S(=O)(=O)O)c1

>  <classification>
no

$$$$
>  <compound>
O=P(OC(CCl)CCl)(OC(CCl)CCl)OC(CCl)CCl

>  <classification>
no

$$$$
>  <compound>
CC(=O)Nc1cccc(O)c1

>  <classification>
no

$$$$
>  <compound>
CCCCCCCC(=O)OC

>  <classification>
no

$$$$
>  <compound>
CC(=O)OCC(=O)[C@@]12N=C(C)O[C@@H]1C[C@H]1[C@@H]3CCC4=CC(=O)C=C[C@]4(C)[C@H]3[C@@H](O)C[C@@]12C

>  <classification>
no

$$$$
>  <compound>
O=C(O)[C@H](O)[C@@H](O)[C@H](O)[C@H](O)CO

>  <classification>
no

$$$$
>  <compound>
COCCCOc1ccnc(CS(=O)c2nc3ccccc3[nH]2)c1C (stereo not drawn)

>  <classification>
no

$$$$
>  <compound>
CC(=O)Nc1ccccc1

>  <classification>
no

$$$$
>  <compound>
CCOC(=O)NNc1nncc2ccccc12

>  <classification>
no

$$$$
>  <compound>
O=C=NCCCCCCN=C=O

>  <classification>
no

$$$$
>  <compound>
CN(C)CCC(c1ccccc1)c1ccccn1 (stereo not drawn)

>  <classification>
no

$$$$
>  <compound>
CC(c1cc2ccccc2s1)N(O)C(N)=O (stereo not drawn)

>  <classification>
no

$$$$
>  <compound>
OC[C@H]1O[C@@](CO)(O[C@H]2O[C@H](CO)[C@@H](O)[C@H](O)[C@H]2O)[C@@H](O)[C@@H]1O

>  <classification>
no

$$$$
>  <compound>
CN(C)CCOCCN(C)C

>  <classification>
no

$$$$
>  <compound>
CN(C)CCC(c1ccc(Cl)cc1)c1ccccn1 (stereo not drawn)

>  <classification>
no

$$$$
>  <compound>
CC1=CC(=O)NS(=O)(=O)O1

>  <classification>
no

$$$$

* * *

Target: Nuclear receptor ROR-gamma (Homo sapiens) (UniProt P51449)
Assay: qHTS assay to identify small molecule antagonists of the retinoid-related orphan receptor gamma (ROR-gamma) signaling pathway (AID 1159521;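 further: CHO cells with doxycycline inducible ROR-gamma driving an RORE luciferase reporter; top concentration of the series differs between compounds; nearly all actives have a fitted effect of over 50% in size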)
Details: Tet-on RORgamma CHO cells, RORE-luciferase, 16 h; series mostly up to 92.4 µM
Results filed as inconclusive are left out. The source made the active and inactive calls. Calls follow the shape of the dose curve; as a rule, active = well fitted inhibition curve with a large enough effect in the repeat runs; inconclusive = weak or mixed curves, or effect the other way; inactive = no such curve, though single readings can be large or run the other way.

>  <mol>
COc1ccc(Cl)cc1C(=O)NCCc1ccc(S(=O)(=O)NC(=O)NC2CCCCC2)cc1

>  <outcome>
inactive

$$$$
>  <mol>
CC(C)CC(=O)CC(C)C

>  <outcome>
inactive

$$$$
>  <mol>
O=c1[nH]nnc2ccccc12

>  <outcome>
inactive

$$$$

* * *

Test: qHTS assay to test for compound auto fluorescence at 590 nm (red) in HepG2 cell free culture (AID 720684)
Conditions: cell-free medium autofluorescence, red 540/590 nm; series mostly up to 91.3 µM
Activity calls are given as the source filed them. Calls follow the shape of the dose curve; as a rule, active = well fitted curve in the direction sought with a large enough effect in the repeat runs; inconclusive = weak or mixed curves; inactive = flat fitted curve, though single readings scatter.
measured.attribute: outcome

>  <compound>
CCC(O)OCCCOC (stereo not drawn)

>  <result>
inactive

$$$$
>  <compound>
Nc1cc([N+](=O)[O-])ccc1O

>  <result>
inactive

$$$$
>  <compound>
CCCCC(CC)COC(=O)C(C#N)=C(c1ccccc1)c1ccccc1 (stereo not drawn)

>  <result>
inactive

$$$$
>  <compound>
O=C1CCC(N2C(=O)c3ccccc3C2=O)C(=O)N1 (stereo not drawn)

>  <result>
inactive

$$$$
>  <compound>
CCCCCCOCCO

>  <result>
inactive

$$$$
>  <compound>
O=C(OCCOCCOC(=O)c1ccccc1)c1ccccc1

>  <result>
inactive

$$$$
>  <compound>
O=[N+]([O-])c1ccc(/C=C/c2ccc([N+](=O)[O-])cc2S(=O)(=O)O)c(S(=O)(=O)O)c1

>  <result>
inactive

$$$$
>  <compound>
CC1=C(C)S(=O)(=O)CCS1(=O)=O

>  <result>
inactive

$$$$
>  <compound>
O=C=NCCCCCCN=C=O

>  <result>
inactive

$$$$
>  <compound>
Cc1cc(C)c(C)cc1C

>  <result>
inactive

$$$$
>  <compound>
O=C(O)CCCC[C@@H]1SC[C@@H]2NC(=O)N[C@@H]21

>  <result>
inactive

$$$$
>  <compound>
COc1ccc2cc([C@H](C)C(=O)O)ccc2c1

>  <result>
inactive

$$$$
>  <compound>
CC1CCC2CC1C2(C)C (stereo not drawn)

>  <result>
inactive

$$$$

* * *

Assay: qHTS assay to identify small molecule agonists of the constitutive androstane receptor (CAR) signaling pathway - cell viability counter screen (AID 1224836); further: nearly all actives have a fitted effect of over 45% in size
Settings: HepG2-CYP2B6-hCAR viability, CellTiter-Fluor, 23 h, PK11195 added to every well; series mostly up to 92.4 µM
Results filed as inconclusive are left out. The source made the active and inactive calls. Calls come from the whole dose curve; as a rule, active = well fitted cell-killing curve with a large enough effect in the repeat runs; inconclusive = weak or mixed curves, or effect the other way; inactive = flat fitted curve, though single readings scatter.

>  <compound>
CCCSc1ccc2nc(NC(=O)OC)[nH]c2c1

>  <outcome>
inactive

$$$$
>  <compound>
CSCCC=O

>  <outcome>
inactive

$$$$
>  <compound>
C[C@H]1C[C@H]2[C@@H]3CCC4=CC(=O)C=C[C@]4(C)[C@@]3(F)[C@@H](O)C[C@]2(C)[C@@]1(O)C(=O)CO

>  <outcome>
inactive

$$$$
>  <compound>
O=C(O)CCCCCCCCCCC(=O)O

>  <outcome>
inactive

$$$$
>  <compound>
COS(C)(=O)=O

>  <outcome>
inactive

$$$$
>  <compound>
CC(=O)Nc1cccc(O)c1

>  <outcome>
inactive

$$$$
>  <compound>
COc1ccc(Cl)cc1C(=O)NCCc1ccc(S(=O)(=O)NC(=O)NC2CCCCC2)cc1

>  <outcome>
inactive

$$$$
>  <compound>
C=C(C)C(=O)Nc1ccc(Cl)c(Cl)c1

>  <outcome>
inactive

$$$$
>  <compound>
CCC(O)OC(O)CC (stereo not drawn)

>  <outcome>
inactive

$$$$
>  <compound>
COc1ccc2cc([C@H](C)C(=O)O)ccc2c1

>  <outcome>
inactive

$$$$
>  <compound>
CC(C)(C)[C@@H](O)[C@@H](Cc1ccc(Cl)cc1)n1cncn1

>  <outcome>
inactive

$$$$
>  <compound>
Oc1cccc2ccccc12

>  <outcome>
inactive

$$$$
>  <compound>
C[Si](O[Si](C)(C)C)O[Si](C)(C)C

>  <outcome>
inactive

$$$$

* * *

Test: qHTS assay to identify small molecule antagonists of the sonic hedgehog signaling (Shh) pathway - cell viability counter screen (AID 1259367); further: nearly all actives have a fitted effect of over 55% in size
Details: NIH/3T3 Gli1-Luc viability, CellTiter-Fluor, 24 h; series mostly up to 92.4 µM
Results filed as inconclusive are left out. Calls of active or inactive are those of the source. The call rests on the fitted dose curve; in most records, active means well fitted cell-killing curve with a large enough effect in the repeat runs; inconclusive means weak or mixed curves, or effect the other way; inactive means no such curve, though single readings can be large or run the other way.
Outcomes: 1 (yes) (active), 0 (no) (inactive)

>  <compound>
CC1CCC2CC1C2(C)C (centres undefined)

>  <classification>
0 (no)

$$$$
>  <compound>
Nc1ccccc1[N+](=O)[O-]

>  <classification>
0 (no)

$$$$
>  <compound>
CCCCCCOCCO

>  <classification>
0 (no)

$$$$
>  <compound>
N[C@@H](Cc1cc(I)c(Oc2cc(I)c(O)c(I)c2)c(I)c1)C(=O)O

>  <classification>
0 (no)

$$$$
>  <compound>
Cc1cc(C)c(C)cc1C

>  <classification>
0 (no)

$$$$
>  <compound>
CSCCC=O

>  <classification>
0 (no)

$$$$
>  <compound>
CCCC(C)=O

>  <classification>
0 (no)

$$$$
>  <compound>
C[C@H]1C[C@H]2[C@@H]3CCC4=CC(=O)C=C[C@]4(C)[C@@]3(F)[C@@H](O)C[C@]2(C)[C@@]1(O)C(=O)CO

>  <classification>
0 (no)

$$$$
>  <compound>
CCCCN(CCCC)CCCC

>  <classification>
0 (no)

$$$$
>  <compound>
CCCSc1ccc2nc(NC(=O)OC)[nH]c2c1

>  <classification>
1 (yes)

$$$$
>  <compound>
O=C(O)c1cc(C(=O)O)cc(S(=O)(=O)O)c1

>  <classification>
0 (no)

$$$$
>  <compound>
COS(C)(=O)=O

>  <classification>
0 (no)

$$$$
>  <compound>
CCCCC(CC)COC(=O)CS (centres undefined)

>  <classification>
0 (no)

$$$$
>  <compound>
Cc1ccc(N(C)C)cc1

>  <classification>
0 (no)

$$$$
>  <compound>
CCCCCCCCCC

>  <classification>
0 (no)

$$$$
>  <compound>
O=C(Oc1ccccc1)c1ccccc1

>  <classification>
0 (no)

$$$$
>  <compound>
C=C(C)C(=O)Nc1ccc(Cl)c(Cl)c1

>  <classification>
0 (no)

$$$$
>  <compound>
COc1ccc2cc([C@H](C)C(=O)O)ccc2c1

>  <classification>
0 (no)

$$$$
>  <compound>
CC(=O)c1ccccc1

>  <classification>
0 (no)

$$$$
>  <compound>
O=C(O)c1cc(=O)c2c(OCC(O)COc3cccc4oc(C(=O)O)cc(=O)c34)cccc2o1

>  <classification>
0 (no)

$$$$
>  <compound>
Oc1cccc2ccccc12

>  <classification>
0 (no)

$$$$
>  <compound>
Cc1cnc(C(=O)NCCc2ccc(S(=O)(=O)NC(=O)NC3CCCCC3)cc2)cn1

>  <classification>
0 (no)

$$$$
>  <compound>
O=C1CCC(N2C(=O)c3ccccc3C2=O)C(=O)N1 (centres undefined)

>  <classification>
0 (no)

$$$$
>  <compound>
CC(C)(C)[C@@H](O)[C@@H](Cc1ccc(Cl)cc1)n1cncn1

>  <classification>
0 (no)

$$$$

// provenance: PubChem BioAssay (Tox21)
